assay: Plasma pharmacokinetics in Cynomolgus monkey after i.v. bolus; format: in vivo, Cynomolgus monkey (Macaca fascicularis); conditions: cynomolgus monkey, in vivo
MEASURED_ENDPOINT: half-life (h)
Form entry: value (h) — number only.

Endpoint output: half-life of CC(C)[C@H]1C(=O)N[C@@H](CCCN=C(N)N)C(=O)NCC(=O)N[C@@H](CC(=O)O)C(=O)N[C@H](Cc2ccccc2)C(=O)N1C [cilengitide, cyclo‐(Asp‐D‐Phe‐N‐MeVal‐Arg‐Gly)] . Value? 1.25

====

test: Plasma pharmacokinetics in rat after i.v. bolus; type: in vivo, Wistar rat; settings: in vivo
MEASURED_ENDPOINT: half-life
# answer = value followed by unit

Endpoint output: half-life of CC(C)[C@H]1C(=O)N[C@@H](CCCN=C(N)N)C(=O)NCC(=O)N[C@@H](CC(=O)O)C(=O)N[C@H](Cc2ccccc2)C(=O)N1C [cilengitide, cyclo‐(Asp‐D‐Phe‐N‐MeVal‐Arg‐Gly)] . Value? 30 min

====

assay: Plasma pharmacokinetics in rat after i.v. bolus; assay type: in vivo, Wistar rat; details: Wistar, plasma, iv, 2.5 mg/kg
MEASURED_ENDPOINT: level at 0.1 h

Endpoint output: level at 0.1 h of CC(C)[C@H]1C(=O)N[C@@H](CCCN=C(N)N)C(=O)NCC(=O)N[C@@H](CC(=O)O)C(=O)N[C@H](Cc2ccccc2)C(=O)N1C [cilengitide, cyclo‐(Asp‐D‐Phe‐N‐MeVal‐Arg‐Gly)] . Value? 5360 to 5870 ng/mL

====

test: Plasma pharmacokinetics in mouse after i.v. bolus; format: in vivo, mouse (NMRI); conditions: female, NMRI, mouse, plasma, iv, 2.5 mg/kg
MEASURED_ENDPOINT: level at 0.25 h (ng/mL)
Form entry: value (ng/mL) — number only.

Endpoint output: level at 0.25 h of CC(C)[C@H]1C(=O)N[C@@H](CCCN=C(N)N)C(=O)NCC(=O)N[C@@H](CC(=O)O)C(=O)N[C@H](Cc2ccccc2)C(=O)N1C [cilengitide, cyclo‐(Asp‐D‐Phe‐N‐MeVal‐Arg‐Gly)] . Value? 448

====

test: Plasma pharmacokinetics in mouse after i.v. bolus; type: in vivo, mouse (NMRI); conditions: mouse, in vivo, iv, 2.5 mg/kg, AUC0‐∞ of parent drug, male mice, 2.5 mg/kg i.v.
MEASURED_ENDPOINT: AUC
# answer = value followed by unit

Endpoint output: AUC of CC(C)[C@H]1C(=O)N[C@@H](CCCN=C(N)N)C(=O)NCC(=O)N[C@@H](CC(=O)O)C(=O)N[C@H](Cc2ccccc2)C(=O)N1C [cilengitide, cyclo‐(Asp‐D‐Phe‐N‐MeVal‐Arg‐Gly)] . Value? 440 ng·h/mL

====

assay: Plasma pharmacokinetics in rabbit after i.v. infusion; format: in vivo, Chinchilla rabbit; conditions: rabbit, in vivo, 450 mg/kg, apparent half‐life, rabbit, 450 mg/kg dose group
MEASURED_ENDPOINT: half-life

Endpoint output: half-life of CC(C)[C@H]1C(=O)N[C@@H](CCCN=C(N)N)C(=O)NCC(=O)N[C@@H](CC(=O)O)C(=O)N[C@H](Cc2ccccc2)C(=O)N1C [cilengitide, cyclo‐(Asp‐D‐Phe‐N‐MeVal‐Arg‐Gly)] . Value? ~1 h

====

experiment: Plasma pharmacokinetics in mouse after i.v. bolus; assay type: in vivo, mouse (NMRI); settings: mouse, in vivo, t1/2, mouse, value used for allometry
MEASURED_ENDPOINT: half-life (min)
Form entry: value (min) — number only.

Endpoint output: half-life of CC(C)[C@H]1C(=O)N[C@@H](CCCN=C(N)N)C(=O)NCC(=O)N[C@@H](CC(=O)O)C(=O)N[C@H](Cc2ccccc2)C(=O)N1C [cilengitide, cyclo‐(Asp‐D‐Phe‐N‐MeVal‐Arg‐Gly)] . Value? 20.4
